Experiment: Preliminary pharmacokinetics in SD rats
Format: in vivo
Conditions: male, SD, rat, plasma, iv, 2 mg/kg, i.v. 2 mg/kg, 8 h; read-out: Concentration of BH in rat plasma, Mean
MEASUREMENT_KIND: concentration at 8 h (ng/mL)
Dear colleague, please return just the value in ng/mL, with no unit written.

Please fill in: concentration at 8 h reported for CC1=CC(=O)[C@@H](O)[C@]2(C)[C@H]3[C@@H](O)[C@H](O)[C@@]4(CO)OC[C@@]35[C@@H](C[C@@H]12)OC(=O)[C@H](O)[C@]54O = 24.5

----------
Assay: Preliminary pharmacokinetics in SD rats
Type: in vivo
Settings: male, SD, rat, plasma, iv, 2 mg/kg, SD rats, 2 mg/kg iv; read-out: Maximum concentration (C max)
MEASUREMENT_KIND: Cmax (ng/mL)
The reply should contain only the number, in ng/mL.

Kindly note the recorded Cmax for CC1=CC(=O)[C@@H](O)[C@]2(C)[C@H]3[C@@H](O)[C@H](O)[C@@]4(CO)OC[C@@]35[C@@H](C[C@@H]12)OC(=O)[C@H](O)[C@]54O [BH, Bruceine H] , which is 477

----------
Experiment: Preliminary pharmacokinetics in SD rats
Format: in vivo
Conditions: male, Sprague-Dawley (SD), rat, plasma, po, 10 mg/kg, rat, p.o.; read-out: MRT (0-t), Mean
MEASUREMENT_KIND: MRT last (h)
Field format: number, assumed h, no unit text.

Just so you know, measured MRT last for CC1=CC(=O)[C@@H](O)[C@]2(C)[C@H]3[C@@H](O)[C@H](O)[C@@]4(CO)OC[C@@]35[C@@H](C[C@@H]12)OC(=O)[C@H](O)[C@]54O [BH, Bruceine H] came out at 5.54

----------
Experiment: Preliminary pharmacokinetics in SD rats
Type: in vivo
Conditions: male, SD, rat, plasma, po, 10 mg/kg, SD rats, 10 mg/kg po; read-out: Half-life (T 1/2) (converted)
MEASUREMENT_KIND: half-life (h)
Please reply with the bare figure in h and do not write the unit itself.

Lab note: measured half-life of CC1=CC(=O)[C@@H](O)[C@]2(C)[C@H]3[C@@H](O)[C@H](O)[C@@]4(CO)OC[C@@]35[C@@H](C[C@@H]12)OC(=O)[C@H](O)[C@]54O [BH, Bruceine H] was 3.35

----------
Assay: Preliminary pharmacokinetics in SD rats
Format: in vivo
Conditions: male, SD, rat, plasma, po, 10 mg/kg, rat, p.o.; read-out: Cmax, Mean
MEASUREMENT_KIND: Cmax (ng/mL)
Response body: numeric value in ng/mL, unit text excluded.

# Cmax (compound: CC1=CC(=O)[C@@H](O)[C@]2(C)[C@H]3[C@@H](O)[C@H](O)[C@@]4(CO)OC[C@@]35[C@@H](C[C@@H]12)OC(=O)[C@H](O)[C@]54O ) is 147

----------
Assay: Preliminary pharmacokinetics in SD rats
Assay type: in vivo
Conditions: male, SD, rat, plasma, po, 10 mg/kg, p.o. 10 mg/kg, 4 h; read-out: Concentration of BH in rat plasma, Mean
Protocol: We administered BH by gavage and intravenous administration to SD rats (male, 200–220 g, n = 6) after they had fasted for 12 h. For oral gavage, the BH was dissolved in DMSO/0.5% CMC-Na (5/95, v/v/), and for intravenous administration, it was dissolved in DMSO/0.9% NaCl (5/95, v/v/), and then the blood samples were collected at intervals to determine the pharmacokinetic (PK) profiles of SD rats.
MEASUREMENT_KIND: concentration at 4 h (ng/mL)
Field: numeric (ng/mL). Do not append units.

Lab book: concentration at 4 h of CC1=CC(=O)[C@@H](O)[C@]2(C)[C@H]3[C@@H](O)[C@H](O)[C@@]4(CO)OC[C@@]35[C@@H](C[C@@H]12)OC(=O)[C@H](O)[C@]54O noted as 101

src = paper PMC9024338
